The substances listed here are annotated with their Activity of Kir2.1 with peptide, expressed as a percentage of the reference compound.
target: Kir2.1 (Homo sapiens, UniProt P63252); construct: host or cells: HEK293 or CHO; experiment: Ion channel panel (IonWorks Barracuda): Kir2.1; assay type: cell-based; conditions: peptide at 0.2 μM; 100% = no change, <100% = inhibition
Sequence (P63252 whole entry): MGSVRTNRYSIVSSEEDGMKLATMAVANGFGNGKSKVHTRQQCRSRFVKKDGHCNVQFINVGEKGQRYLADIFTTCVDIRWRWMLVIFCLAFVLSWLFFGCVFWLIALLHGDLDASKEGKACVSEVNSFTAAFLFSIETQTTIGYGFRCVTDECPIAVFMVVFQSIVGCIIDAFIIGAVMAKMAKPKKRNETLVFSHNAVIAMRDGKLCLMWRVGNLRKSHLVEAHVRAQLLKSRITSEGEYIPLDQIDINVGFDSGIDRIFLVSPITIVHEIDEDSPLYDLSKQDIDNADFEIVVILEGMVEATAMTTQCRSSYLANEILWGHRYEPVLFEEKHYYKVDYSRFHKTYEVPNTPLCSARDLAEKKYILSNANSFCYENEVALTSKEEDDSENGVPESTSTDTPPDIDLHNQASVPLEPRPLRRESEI
Give the number; % is assumed, so skip it.

Recorded result, 18 (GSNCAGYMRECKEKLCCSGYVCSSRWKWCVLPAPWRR) [compound 18] , Activity of Kir2.1 with peptide, expressed as a percentage of the reference compound: 104

Data point: 27 (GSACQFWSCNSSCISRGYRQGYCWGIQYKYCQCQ) [compound 27] ; Activity of Kir2.1 with peptide, expressed as a percentage of the reference compound = 101

Please fill in: Activity of Kir2.1 with peptide, expressed as a percentage of the reference compound reported for 15 (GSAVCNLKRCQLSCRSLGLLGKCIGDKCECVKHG) [compound 15] = 107

The substance listed as 30 (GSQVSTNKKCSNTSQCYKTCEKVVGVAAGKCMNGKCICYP) [compound 30] shows Activity of Kir2.1 with peptide, expressed as a percentage of the reference compound equal to 102

Record 34 (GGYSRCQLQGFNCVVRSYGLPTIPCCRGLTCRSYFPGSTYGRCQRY) [compound 34] , field Activity of Kir2.1 with peptide, expressed as a percentage of the reference compound: 97
